B1: Gal4AD-Spo11 [S. cerevisiae] / LexA-Rec102 [S. cerevisiae] (parent)
chain 1: MALEGLRKKYKTRQELVKALTPKRRSIHLNSNGHSNGTPCSNADVLAHIKHFLSLAANSLEQHQQPISIVFQNKKKKGDTSSPDIHTTLDFPLNGPHLCTHQFKLKRCAILLNLLKVVMEKLPLGKNTTVRDIFYSNVELFQRQANVVQWLDVIRFNFKLSPRKSLNIIPAQKGLVYSPFPIDIYDNILTCENEPKMQKQTIFPGKPCLIPFFQDDAVIKLGTTSMCNIVIVEKEAVFTKLVNNYHKLSTNTMLITGKGFPDFLTRLFLKKLEQYCSKLISDCSIFTDADPYGISIALNYTHSNERNAYICTMANYKGIRITQVLAQNNEVHNKSIQLLSLNQRDYSLAKNLIASLTANSWDIATSPLKNVIIECQREIFFQKKAEMNEIDARIFEYK
chain 2: MARDITFLTVFLESCGAVNNDEAGKLLSAWTSTVRIEGPESTDSNSLYIPLLPPGMLKIKLNFKMNDRLVTEEQELFTKLREIVGSSIRFWEEQLFYQVQDVSTIENHVILSLKCTILTDAQISTFISKPRELHTHAKGYPEIYYLSELSTTVNFFSKEGNYVEISQVIPHFNEYFSSLIVSQLEFEYPMVFSMISRLRLKWQQSSLAPISYALTSNSVLLPIMLNMIAQDKSSTTAYQILCRRRGPPIQNFQIFSLPAVTYNK

# Variants of: B1
# Measurement notes: Y2H quantitative β-galactosidase assay
# Test conditions: with LexA-Rec102 [S. cerevisiae]; parent: 1; read off a plot
Readout type: response (normalized β-gal units)
Give only the figure.

Input chain 1 L16A . Output response (normalized β-gal units): 0.3

Noted for chain 1 F91A : its response (normalized β-gal units) reads 0.3

response (normalized β-gal units) reported for this variant chain 1 V17A : 0.5

Looking up chain 1 F103A , I found its response (normalized β-gal units) recorded as 0.35

Reported response (normalized β-gal units) ( chain 1 G95A ) = 0.17

So for chain 1 L60A , the logged response (normalized β-gal units) turned out to be 0.62

# variant chain 1 L3A ; its response (normalized β-gal units) = 0.27

Record summary for chain 1 Q102A : reported response (normalized β-gal units) = 1.2

Given item chain 1 L93A , the value recorded as its response (normalized β-gal units) is 0.15

Summary for this variant, chain 1 L105A : response (normalized β-gal units) is 0.05

In plain terms, chain 1 L112A has a documented response (normalized β-gal units) of 0.03

Per the record, chain 1 N94A has response (normalized β-gal units) of 0.07

Short answer for chain 1 L20A : response (normalized β-gal units) was 0.35
